Entry source: patent US9133207B2

- System: CaES-17 (esophageal cancer cell)
- run_description: Solid tumor cell growth inhibition, MTT, 72 h (Example 7)
- Type: cell-based, human
- test_conditions: Homo sapiens, CaEs17; 72 h, MTT, CAES-17
recorded_metric: IC50
Answer format reminder: number followed by unit.

- COc1ccc2cc1Oc1ccc(cc1)C[C@H]1c3cc(c(OC)cc3CCN1C)Oc1c(OC)c(OC)c(CNCc3cccs3)c3c1[C@H](C2)N(C)CC3 [BS-TE-359]: 1.61 mg/L
- COc1ccc2cc1Oc1ccc(cc1)C[C@H]1c3cc(c(OC)cc3CCN1C)Oc1c(OC)c(OC)c(Cn3cccn3)c3c1[C@H](C2)N(C)CC3 [BS-TE-330]: 2.4 mg/L

Entry COc1ccc2cc1Oc1ccc(cc1)C[C@H]1c3cc(c(OC)cc3CCN1C)Oc1c(OC)c(OC)c(CNc3nccs3)c3c1[C@H](C2)N(C)CC3 [BS-TE-320] — recorded IC50 = 2.11 mg/L

Entry COc1ccc2cc1Oc1ccc(cc1)C[C@H]1c3cc(c(OC)cc3CCN1C)Oc1c(OC)c(OC)c(CNC3CC3)c3c1[C@H](C2)N(C)CC3 [BS-TE-301] — recorded IC50 = 2.93 mg/L

Briefly, IC50 measured for COc1ccc2cc1Oc1ccc(cc1)C[C@H]1c3cc(c(OC)cc3CCN1C)Oc1c(OC)c(OC)c(CNCc3cccnc3)c3c1[C@H](C2)N(C)CC3 [BS-TE-348] : 2.3 mg/L

IC50 recorded for this compound, COCC(C)OCc1c2c3c(c(OC)c1OC)Oc1cc4c(cc1OC)CCN(C)[C@H]4Cc1ccc(cc1)Oc1cc(ccc1OC)C[C@@H]3N(C)CC2 (stereo partly drawn) [BS-TE-406] , is 3.94 mg/L

====

Recorded IC90 values for a group of compounds are listed next.
- System: A549 (human lung cancer)
- run_description: Solid tumor cell growth inhibition, MTT, 72 h (Example 7)
- Type: cell-based
- test_conditions: Homo sapiens; 72 h, MTT, A549
Output spec: scalar in µg/mL, unitless text.

• COc1ccc2cc1Oc1ccc(cc1)C[C@H]1c3cc(c(OC)cc3CCN1C)Oc1c(OC)c(OC)c(CNC(C)C)c3c1[C@H](C2)N(C)CC3 = 9.07

Reported IC90 (A549 (human lung cancer)) for entry COc1ccc2cc1Oc1ccc(cc1)C[C@H]1c3cc(c(OC)cc3CCN1C)Oc1c(OC)c(OC)cc3c1[C@H](C2)N(C)CC3 [TTD, reference compound] is 12.5

Case COCCCNCc1c2c3c(c(OC)c1OC)Oc1cc4c(cc1OC)CCN(C)[C@H]4Cc1ccc(cc1)Oc1cc(ccc1OC)C[C@@H]3N(C)CC2 , A549 (human lung cancer), IC90 recorded as 6.66

====

Let's look at some compounds and their measured IC90.
- Test system: H9 (acute lymphoblastic leukemia, ALL)
- run_description: Leukemia cell growth inhibition, MTT, 72 h (Example 5)
- Type: cell-based, human
- test_conditions: Homo sapiens; 72 h, MTT
Use µg/mL as the unit, but write only the number.

For orientation, consider the following solved cases.
* COc1ccc2cc1Oc1ccc(cc1)C[C@H]1c3cc(c(OC)cc3CCN1C)Oc1c(OC)c(OC)c(CN3CCCCC3)c3c1[C@H](C2)N(C)CC3 [BS-TE-355] | 1.96
* COc1ccc2cc1Oc1ccc(cc1)C[C@H]1c3cc(c(OC)cc3CCN1C)Oc1c(OC)c(OC)c(COC(=O)c3ccccc3)c3c1[C@H](C2)N(C)CC3 [BS-TE-224] | 4.75
* COc1ccc2cc1Oc1ccc(cc1)C[C@H]1c3cc(c(OC)cc3CCN1C)Oc1c(OC)c(OC)c(CN3CCCC(C)C3)c3c1[C@H](C2)N(C)CC3 (some centres unmarked) [BS-TE-346] | 2.3
* COc1ccc2cc1Oc1ccc(cc1)C[C@H]1c3cc(c(OC)cc3CCN1C)Oc1c(OC)c(OC)c(CN3CCCN(C)CC3)c3c1[C@H](C2)N(C)CC3 [BS-TE-356] | 2.21
* CNCc1c2c3c(c(OC)c1OC)Oc1cc4c(cc1OC)CCN(C)[C@H]4Cc1ccc(cc1)Oc1cc(ccc1OC)C[C@@H]3N(C)CC2 [BS-TE-326] | 1.35

Sure, the documented IC90 for COc1ccc2cc1Oc1ccc(cc1)C[C@H]1c3cc(c(OC)cc3CCN1C)Oc1c(OC)c(OC)c(CNCc3cccnc3)c3c1[C@H](C2)N(C)CC3 [BS-TE-348] is 2.97

// COc1ccc2cc1Oc1ccc(cc1)C[C@H]1c3cc(c(OC)cc3CCN1C)Oc1c(OC)c(OC)c(CNCc3cccs3)c3c1[C@H](C2)N(C)CC3 [BS-TE-359] : IC90 value = 2.3

Reported IC90 for COc1ccc2cc1Oc1ccc(cc1)C[C@H]1c3cc(c(OC)cc3CCN1C)Oc1c(OC)c(OC)c(COC(C)=O)c3c1[C@H](C2)N(C)CC3 [BS-TE-223] was 8.89

Measured IC90 of COc1ccc2cc1Oc1ccc(cc1)C[C@H]1c3cc(c(OC)cc3CCN1C)Oc1c(OC)c(OC)c(CNCc3ccco3)c3c1[C@H](C2)N(C)CC3 [BS-TE-350] : 1.92

Just so you know, measured IC90 for COc1ccc2cc1Oc1ccc(cc1)C[C@H]1c3cc(c(OC)cc3CCN1C)Oc1c(OC)c(OC)c(CN3CCCC3)c3c1[C@H](C2)N(C)CC3 [BS-TE-305] came out at 1.44

Note to self: IC90 recorded for COc1ccc2cc1Oc1ccc(cc1)C[C@H]1c3cc(c(OC)cc3CCN1C)Oc1c(OC)c(OC)c(CN3CCN(C(C)C)CC3)c3c1[C@H](C2)N(C)CC3 [BS-TE-333] was 1.84

For this compound ( COc1ccc2cc1Oc1ccc(cc1)C[C@H]1c3cc(c(OC)cc3CCN1C)Oc1c(OC)c(OC)c(CN3CCN(c4ccccc4)CC3)c3c1[C@H](C2)N(C)CC3 [BS-TE-343] ), measured IC90 is 2.75

Item: COc1ccc2cc1Oc1ccc(cc1)C[C@H]1c3cc(c(OC)cc3CCN1C)Oc1c(OC)c(OC)c(CN3CCOCC3)c3c1[C@H](C2)N(C)CC3 [BS-TE-307] | IC90: 1.99
